System: SK-MEL-5 melanoma
procedure_summary: NCI tumour cell line growth inhibition, 48 h
*1 amine or outer side, *2 acyl side, *3 side chain or, on linkers, in order; H or OH if unused. Where a SMILES comes first, the peptide text is derived from it. Bridges are numbered along the chain shown (N, C = ends). [ ]: non-standard residue; d: D form. Adda = CO[C@@H](Cc1ccccc1)[C@@H](C)/C=C(C)/C=C/[C@H](N[*:1])[C@H](C)C(=O)[*:2]; dAsp(3S-Me) = C[C@H](C(=O)[*:3])[C@@H](N[*:1])C(=O)[*:2]; d(γGlu) = O=C(O)[C@@H](CCC(=O)[*:2])N[*:1]; NMeDha = C=C(NC)C(=O)O
assay_readout: GI50

For each of the compounds below, state GI50.
1. C=C1C(=O)N[C@H](C)C(=O)N[C@@H](CC(C)C)C(=O)N[C@@H](C(=O)O)[C@H](C)C(=O)N[C@@H](CCCN=C(N)N)C(=O)N[C@@H](/C=C/C(C)=C/[C@H](C)[C@H](Cc2ccccc2)OC)[C@H](C)C(=O)N[C@@H](C(=O)O)CCC(=O)N1C (R[Adda][d(γGlu)][NMeDha][dA]L[dAsp(3S-Me)]-OH; lactam N-7)
2. O=C(N/N=C/c1ccccc1O)c1ccccc1O
3. O=P(O)(NCCCl)NCCCl

*A*
["> 5 µM", "1.08 µM", "> 100 µM"]

Every entry's value here was drawn from PubChem BioAssay (NCI).
